- study target: Cruzain (Trypanosoma cruzi)
- Sequence (P25779 123-337): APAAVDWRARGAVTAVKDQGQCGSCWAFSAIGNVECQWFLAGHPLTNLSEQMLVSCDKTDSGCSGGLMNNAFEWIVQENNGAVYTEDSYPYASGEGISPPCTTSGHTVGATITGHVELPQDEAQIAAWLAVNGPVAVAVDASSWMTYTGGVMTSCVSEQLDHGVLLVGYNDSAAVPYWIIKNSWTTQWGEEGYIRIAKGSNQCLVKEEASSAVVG
- procedure summary: Cysteine protease inhibition, progress curve method, cruzain
- Format: biochemical
- test conditions: 4 uM Ac-Lys-Glu-Lys-Leu-Arg-AMC, 100 mM Na acetate pH 5.5, 5 mM cysteine; read-out: Cruzain Ki
- Protocol: Standard assay conditions for the determination of kinetic constants used 10 uM fluorogenic peptide substrate, Cbz-Phe-Arg-AMC for the cysteine proteases from Leishmania spp and Schistosoma Mansoni, Cbz-Leu-Arg-AMC for the cysteine proteases from Plasmodium falciparum and Trypanosoma brucei rhodesiensi, and Ac-Lys-Glu-Lys-Leu-Arg-AMC (4 uM final substrate concentration) for the cysteine protease from Trypoanosoma cruzi, and were determined in 100 mM Na acetate at pH 5.5 containing 5 mM cysteine. […]
Assignment: determine reported Ki for the given compounds.
Answers are plain numbers, in nM.

compound	Ki (nM)
CC(C)C[C@H](NC(=O)c1cc2ccccc2s1)C(=O)N[C@H]1CCCN(C(=O)Nc2ccccc2F)CC1=O (stereo in doubt)	6.4
Cc1csc(C(=O)NC(CC(C)C)C(=O)N[C@H]2CCCN(C(=O)Nc3ccccc3F)CC2=O)c1 (stereo partly shown)	8.7
CC(C)C[C@@H](NC(=O)c1cc2cc(OCCN3CCCC3)ccc2o1)C(=O)N[C@@H]1CCCN(S(=O)(=O)c2ccccc2)CC1=O (stereo in doubt)	8

Read the next record carefully.
Note to self: Ki of CC(C)CC(NC(=O)NCc1ccccc1)C(=O)NC1CCCN(S(=O)(=O)c2ccccn2)CC1=O (stereo not shown) with Cruzain (Trypanosoma cruzi) was 15

----------
- study target: Cruzain (Trypanosoma cruzi)
- procedure summary: Cysteine protease inhibition, progress curve method, cruzain
- Assay type: biochemical
- test conditions: 4 uM Ac-Lys-Glu-Lys-Leu-Arg-AMC, 100 mM Na acetate pH 5.5, 5 mM cysteine; read-out: Cruzain Ki
experimental endpoint: Ki (nM)
Answers are plain numbers, in nM.

compound	Ki [nM]
Cc1c(C(=O)N[C@@H](CC(C)C)C(=O)NC2CCCN(Cc3ccc4ccccc4n3)CC2=O)oc2ccccc12 (stereo partly drawn)	7.1

Provide the reported Ki of each entry below, same order.
1. CC(C)CC(NC(=O)c1ccc(F)cc1)C(=O)N[C@@H]1CCCN(S(=O)(=O)c2cccc[n+]2[O-])CC1=O (stereo partly drawn)
2. CC(C)C[C@@H](NC(=O)c1ccc2c(c1)OCCCO2)C(=O)N[C@@H]1CCCN(S(=O)(=O)c2cccc[n+]2[O-])CC1=O
3. COc1ccc2oc(C(=O)N[C@H](CC(C)C)C(=O)N[C@@H]3CCCN(S(=O)(=O)c4cccc[n+]4[O-])CC3=O)cc2c1 (single isomer, unassigned) [Example 63]
4. COc1ccc(S(=O)(=O)N2CCC[C@H](NC(=O)[C@H](CC(C)C)NC(=O)CNC(=O)c3ccco3)C(=O)C2)cc1
5. COc1ccc2oc(C(=O)N[C@H](CC(C)C)C(=O)N[C@@H]3CCCN(S(=O)(=O)c4cccc[n+]4[O-])CC3=O)cc2c1 [Example 53]

1: 15; 2: 9.8; 3: 9.8; 4: 17; 5: 10

----------
Assignment: determine reported Ki for the given compounds.
- study target: Rhodazain (Trypanosoma brucei rhodesiense, UniProt Q95PM0)
- Sequence (Q95PM0 entry or part of it): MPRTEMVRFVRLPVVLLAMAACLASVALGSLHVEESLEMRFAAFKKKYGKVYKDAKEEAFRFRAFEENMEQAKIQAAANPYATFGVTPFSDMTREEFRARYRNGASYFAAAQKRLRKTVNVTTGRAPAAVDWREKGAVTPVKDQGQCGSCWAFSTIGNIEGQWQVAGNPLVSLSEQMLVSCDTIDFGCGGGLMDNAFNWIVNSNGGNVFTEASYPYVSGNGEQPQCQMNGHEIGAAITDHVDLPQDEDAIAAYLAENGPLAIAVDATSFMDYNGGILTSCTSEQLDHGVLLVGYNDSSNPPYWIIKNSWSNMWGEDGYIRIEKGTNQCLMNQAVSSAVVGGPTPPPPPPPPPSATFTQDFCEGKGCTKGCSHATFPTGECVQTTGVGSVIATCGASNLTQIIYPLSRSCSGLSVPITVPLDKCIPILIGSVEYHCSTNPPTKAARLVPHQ
- procedure summary: Cysteine protease inhibition, progress curve method, rhodazain
- Type: biochemical, Trypanosoma brucei rhodesiensi
- test conditions: Rhodazain Ki (nM), 10 uM Cbz-Leu-Arg-AMC, 100 mM Na acetate pH 5.5, 5 mM cysteine
Answers are plain numbers, in nM.

compound	recorded number
CC(C)C[C@@H](NC(=O)c1ccc(Br)o1)C(=O)N[C@@H]1CCCN(S(=O)(=O)c2ccccn2)CC1=O (stereo in doubt) [Example 34]	2.6
COc1ccc(C(=O)N[C@H](CC(C)C)C(=O)N[C@@H]2CCCN(S(=O)(=O)c3ccccc3C#N)CC2=O)cc1OC [Example 120]	11
CC(C)C[C@@H](NC(=O)c1ccnc2ccccc12)C(=O)N[C@@H]1CCCN(S(=O)(=O)c2ccccn2)CC1=O (single isomer, unassigned) [Example 153]	1.6
COc1ccc(CCCCC(=O)NC(CC(C)C)C(=O)NC2CCCN(S(=O)(=O)c3ccccn3)CC2=O)cc1 (stereo not shown) [Example 122]	8.8
CC(C)C[C@H](NC(=O)c1cc2ccccc2o1)C(=O)N[C@H]1CCCN(S(=O)(=O)c2nccs2)CC1=O [Example 130]	2.6
Cc1c(C(=O)N[C@@H](CC(C)C)C(=O)N[C@H]2CCCN(S(=O)(=O)c3ccccc3F)CC2=O)oc2ccccc12 [Example 94]	9.4

Provide the reported Ki of each entry below, same order.
1. O=C(N[C@@H](Cc1ccc2ccccc2c1)C(=O)NC1CCCN(S(=O)(=O)c2ccccn2)CC1=O)c1cccc2ccccc12 (stereo partly shown) [Example 175]
2. CC(C)C[C@H](NC(=O)c1cc2ccccc2o1)C(=O)N[C@H]1CCCN(S(=O)(=O)c2ncc[nH]2)CC1=O [Example 41]
3. Cc1c(C(=O)N[C@H](CC(C)C)C(=O)N[C@@H]2CCCN(S(=O)(=O)c3ccccn3)CC2=O)oc2ccccc12 (single isomer, unassigned) [Example 97]
4. CC(C)C[C@H](NC(=O)c1cc2ccccc2o1)C(=O)N[C@H]1C[C@H](C)CN(S(=O)(=O)c2ccccn2)CC1=O (single isomer, unassigned) [Example 167]

1: 5.6; 2: 2.9; 3: 2.7; 4: 4

----------
- study target: Rhodazain (Trypanosoma brucei rhodesiense, UniProt Q95PM0)
- procedure summary: Cysteine protease inhibition, progress curve method, rhodazain
- Assay type: biochemical, Trypanosoma brucei rhodesiensi
- test conditions: Rhodazain Ki (nM), 10 uM Cbz-Leu-Arg-AMC, 100 mM Na acetate pH 5.5, 5 mM cysteine
experimental endpoint: Ki (nM)
Numbers only, in nM.

The examples below pair each entry with its known result.
molecule	recorded number
CC(C)C[C@@H](NC(=O)c1ccc(-c2cccc(C(F)(F)F)c2)o1)C(=O)N[C@@H]1CCCN(S(=O)(=O)c2cccc[n+]2[O-])CC1=O [Example 119]	5.1
CC(C)C[C@@H](NC(=O)c1cc2sccc2s1)C(=O)N[C@@H]1CCCN(S(=O)(=O)c2ccccn2)CC1=O (single isomer, unassigned) [Example 98]	3.9

Provide the reported Ki of each entry below, same order.
1. Cc1c(C(=O)N[C@H](CC(C)C)C(=O)NC2CCCN(S(=O)(=O)c3cccc[n+]3[O-])CC2=O)oc2ccccc12 (stereo partly drawn) [Example 57]
2. CC(C)C[C@@H](NC(=O)c1nccc2ccccc12)C(=O)N[C@@H]1CCCN(S(=O)(=O)c2ccccn2)CC1=O (single isomer, unassigned) [Example 154]

1: 5.4; 2: 4.4

----------
- study target: Falcipain 2 (Plasmodium falciparum, UniProt Q8I6U4)
- Sequence (Q8I6U4 244-484): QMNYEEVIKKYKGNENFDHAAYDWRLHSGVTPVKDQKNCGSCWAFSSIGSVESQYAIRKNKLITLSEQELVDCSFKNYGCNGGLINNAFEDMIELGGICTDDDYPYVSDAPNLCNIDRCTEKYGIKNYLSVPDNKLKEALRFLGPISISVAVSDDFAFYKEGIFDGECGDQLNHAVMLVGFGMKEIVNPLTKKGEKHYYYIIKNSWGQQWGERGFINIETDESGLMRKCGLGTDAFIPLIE
experimental endpoint: pKi
Give bare numbers, as −log10 of the molar value.

The examples below pair each entry with its known result.
compound	pKi
CC(C)C[C@@H](NC(=O)c1cc2ccccc2o1)C(=O)NC1CCCN(S(=O)(=O)c2ccccn2)CC1=O (single isomer, unassigned) [Example 21]	8.00
COc1ccc2oc(C(=O)N[C@H](CC(C)C)C(=O)N[C@@H]3CCCN(S(=O)(=O)c4ncccc4C)CC3=O)cc2c1 (stereo in doubt) [Example 162]	8.21

pKi measured on CC(C)C[C@H](NC(=O)c1cc2ccccc2s1)C(=O)N[C@H]1CCCN(S(=O)(=O)c2nccs2)CC1=O [Example 127] = 8.09

----------
- study target: Rhodazain (Trypanosoma brucei rhodesiense)
- procedure summary: Cysteine protease inhibition, progress curve method, rhodazain
- Format: biochemical, Trypanosoma brucei rhodesiensi
- test conditions: Rhodazain Ki (nM), 10 uM Cbz-Leu-Arg-AMC, 100 mM Na acetate pH 5.5, 5 mM cysteine
Assignment: determine reported Ki for the given molecules.
Answers are plain numbers, in nM.

molecule	recorded number
CC(C)C[C@@H](NC(=O)c1cc2cc(F)c(F)cc2o1)C(=O)N[C@@H]1CCCN(S(=O)(=O)c2ccccn2)CC1=O (stereo in doubt) [Example 149]	6.3
CC(C)C[C@@H](NC(=O)c1ccc2ncccc2c1)C(=O)N[C@@H]1CCCN(S(=O)(=O)c2ccccn2)CC1=O (single isomer, unassigned) [Example 152]	1.6
CC(C)C[C@H](NC(=O)c1ccc2ccccc2n1)C(=O)N[C@H]1CCCN(C(=O)Nc2ccccc2F)CC1=O [Example 219]	5.5

Provide the reported Ki of each entry below, same order.
1. Cc1c(C(=O)N[C@H](CC(C)C)C(=O)N[C@@H]2CCCN(S(=O)(=O)c3cccc[n+]3[O-])CC2=O)oc2ccccc12 (single isomer, unassigned) [Example 99]
2. CCc1c(C(=O)NC(CC(C)C)C(=O)N[C@H]2CCN(S(=O)(=O)c3cccc[n+]3[O-])CCC2=O)oc2ccccc12 (single isomer, unassigned) [Example 207]
3. CC(C)C[C@H](NC(=O)c1cc2ccccc2n1C)C(=O)N[C@H]1CCCN(S(=O)(=O)c2nccs2)CC1=O [Example 128]
4. COc1ccc2oc(C(=O)N[C@H](CC(C)C)C(=O)N[C@@H]3CCCN(S(=O)(=O)c4cccc[n+]4[O-])CC3=O)cc2c1 (single isomer, unassigned) [Example 63]
5. CC(C)C[C@H](NC(=O)c1cc2ccccc2s1)C(=O)N[C@H]1CCCN(C(=O)Nc2ccccc2F)CC1=O (stereo in doubt) [Example 215]

1. 5.1
2. 5.4
3. 8.2
4. 5.9
5. 3.6

Provide the reported Ki of each entry below, same order.
1. COc1cc2cc(C(=O)N[C@H](CC(C)C)C(=O)N[C@@H]3CCCN(S(=O)(=O)c4cccc[n+]4[O-])CC3=O)oc2cc1OC [Example 52]
2. O=C(N[C@@H](Cc1ccc2ccccc2c1)C(=O)NC1CCCN(S(=O)(=O)c2ccccn2)CC1=O)c1cccc2ccccc12 (single isomer, unassigned) [Example 188]
3. CC(C)CC(NC(=O)c1cc2ccccc2o1)C(=O)NC1CC[C@@H](C)N(S(=O)(=O)c2ccccn2)CC1=O (single isomer, unassigned) [Example 182]
4. COc1ccc(C(=O)NC(CC(C)C)C(=O)N[C@@H]2CCCN(S(C)(=O)=O)CC2=O)cc1OC (some centres unmarked) [Example 113]
5. COc1cccc2cc(C(=O)N[C@@H](CC(C)C)C(=O)N[C@H]3CCCN(S(=O)(=O)c4ccccc4F)CC3=O)oc12 [Example 93]

[3.3, 4, 1.1, 7.8, 11]

Ki measured on O=C(N[C@@H](Cc1ccc2ccccc2c1)C(=O)NC1CCCN(S(=O)(=O)c2ccccn2)CC1=O)c1cc2ccccc2o1 (some centres unmarked) [Example 159] = 3.4
